Target: T1, human CD8A-Fc (recombinant human CD8 alpha fused to Fc fragment of human IgG1) (human, UniProt P01732 22-182, limits assumed)
T1 construct: SPR ligand, captured by goat anti-human Fc; also called hCD8A-Fc; recombinant CD8 alpha; not shown: linker with flag (and polyhistidine) tag and Fc fragment of human IgG1; depends on which of the two constructs was used
T1 sequence (P01732 22-182 limits assumed): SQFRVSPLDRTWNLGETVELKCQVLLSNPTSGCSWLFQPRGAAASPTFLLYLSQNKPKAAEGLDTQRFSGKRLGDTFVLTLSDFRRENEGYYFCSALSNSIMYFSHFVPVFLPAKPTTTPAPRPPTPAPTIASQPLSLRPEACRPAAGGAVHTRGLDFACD
Experiment: SPR (ProteOn), captured hCD8A-Fc, heterogeneous ligand fit, higher affinity population
Description: Human CD8A-Fc was then captured at five surface densities ranging from 200 to 1200 response units, leaving the 6th channel as empty channel control for GAH-Fc IgG surface. Binding was measured by flowing five different concentrations of anti-CD8A FN3 domains (1 μM diluted in a 3-fold dilution series) as analytes simultaneously in the horizontal orientation over the captured hCD8A-Fc surfaces, with a sixth analyte channel containing only running buffer PBST. […]
Assignment: determine reported pKd for the given binders.
Give bare numbers, as −log10 of the molar value.

Study these solved cases before continuing.
P282DR9P1359_F5 (designed binder, FN3 domain (Centyrin); purified as His-tagged protein, tag not in the entry) LPAPKNLVVSRVTEDSARLSWTAPDAAFDSFQIAYPEWPPPGEAIVLTVPGSERSYDLTGLKPGTEYFVIIQGVKGGVESWPLSAIFTT ... 10.40
P283AR9P1362_D6 (designed binder, FN3 domain (Centyrin); purified as His-tagged protein, tag not in the entry) LPAPKNLVVSRVTEDSARLSWAKRPGAFDSFLIQYQESEKVGEAIVLTVPGSERSYDLTGLKPGTEYTVSIYGVDVKYDIDSRPISSNPLSAIFTT ... 10.52
P282DR9P1359_C5 (designed binder, FN3 domain (Centyrin); purified as His-tagged protein, tag not in the entry) LPAPKNLVVSRVTEDSARLSWTAPDAAFDSFWITYPEWPDPGGEAIVLTVPGSERSYDLTGLKPGTEYFVVIYGVKGGEIYSPLSAIFTT ... 10.70

With those in mind, consider the next binder.
(Q) Give the value of pKd reported for the following: P282ER9P1360_C8 (designed binder, FN3 domain (Centyrin); purified as His-tagged protein, tag not in the entry) LPAPKNLVVSRVTEDSARLSWTAPDAAFDSFGILYYEPVDSGEAITLPVPGSERSYDLTGLKPGTEYWVVITGVKGGAPSTPLGTIFTT
(A) 9.70
